Every entry's value here was drawn from patent US7511146B2.

Target: MCH receptor (Homo sapiens, UniProt Q99705)
Construct: expressed in transfected cells; host or cells: CHO cells
Sequence (Q99705 whole entry): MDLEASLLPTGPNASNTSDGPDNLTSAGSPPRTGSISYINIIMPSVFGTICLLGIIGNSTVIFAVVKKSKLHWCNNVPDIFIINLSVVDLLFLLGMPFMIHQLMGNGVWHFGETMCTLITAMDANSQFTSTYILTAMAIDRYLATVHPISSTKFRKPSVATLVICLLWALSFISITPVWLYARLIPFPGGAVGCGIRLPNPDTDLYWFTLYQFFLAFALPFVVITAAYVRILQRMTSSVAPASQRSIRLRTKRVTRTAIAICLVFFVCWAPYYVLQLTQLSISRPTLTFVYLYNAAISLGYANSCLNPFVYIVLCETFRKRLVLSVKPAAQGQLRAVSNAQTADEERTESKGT
Test: MCH Receptor Binding Assay ([125I]-MCH, SPA, membranes from CHO cells expressing the MCH receptor)
Settings: [125I]-MCH displacement, CHO cell membranes; read-out: Class (Ki, MCH receptor binding)
Protocol: MCH Receptor Binding Assay: Membranes from CHO cells expressing the MCH receptor were prepared by lysing cells with 5 mM HEPES for 15 min at 4C. Cell lysates were centrifuged ([…], 15 min) and the pellet was resuspended in 5 mM HEPES. […] Nonspecific binding was determined by including 1 μM MCH in the binding reaction. […] Plates were then analyzed in a TOPCOUNT microplate scintillation counter (Packard). Data was analyzed and Ki values were determined using GraphPad Prism.
Parameter: Ki. Scope: all listed entries.

Before answering, review these 5 worked examples.
>>> df
                                   compound  measurement
0  N#Cc1cccc(-c2ccc(C(CNc3nc4cc(Cl)c(Cl)cc4[nH]3)C3CCN(Cc4ccccc4)CC3)cc2)c1 (stereo not shown) [Compound 28A]      < 20 nM
1  N#Cc1cccc(-c2ccc(C3(CNc4nc5cc(F)c(F)cc5[nH]4)CCNCC3)cc2)c1  20 to 50 nM
2  N#Cc1cccc(-c2ccc(C(NCc3nc4cc(Cl)c(F)cc4[nH]3)C3CCN(C4CCCC4)CC3)cc2)c1 (stereo not shown) [Compound 17B]  20 to 50 nM
3  CC(=O)N1CCC(C(OCc2nc3cc(Cl)c(Cl)cc3[nH]2)c2ccc(-c3cccc(C#N)c3)cc2)CC1 (stereo not shown)     > 100 nM
4  N#Cc1cccc(-c2ccc(C(NCc3nc4cc(Cl)c(F)cc4[nH]3)C3CCNCC3)cc2)c1 (stereo not shown) [Compound 16B]  20 to 50 nM

For the compound COC(=O)N1CCC(CNc2nc3cc(F)c(F)cc3[nH]2)(c2ccc(-c3cccc(C#N)c3)cc2)CC1 , give its reported Ki. > 100 nM

Tell me Ki reported for N#Cc1cccc(-c2ccc(C(OCc3nc4cc(F)c(Cl)cc4[nH]3)C3CCN(CC4CC4)CC3)cc2)c1 (stereo not shown) [Compound 34A] 20 to 50 nM

* * *

target: MCH receptor (Homo sapiens, UniProt Q99705); construct: expressed in transfected cells; host or cells: CHO cells; test: MCH Receptor Binding Assay ([125I]-MCH, SPA, membranes from CHO cells expressing the MCH receptor); conditions: [125I]-MCH displacement, CHO cell membranes; read-out: Class (Ki, MCH receptor binding)
pKi: −log10 of the molar value.
Reported pKi values follow for various compounds

# example entries with known answers
                                   compound  experimental_readout   measurement
0  N#Cc1cccc(-c2ccc(C3(COc4nc5cc(Cl)c(Cl)cc5[nH]4)CCNCC3)cc2)c1                   pKi  7.00 to 7.30
1  N#Cc1cccc(-c2ccc(C(NCc3nc4cc(Cl)c(F)cc4[nH]3)C3CCN(CC4CC4)CC3)cc2)c1 (centres unmarked) [Compound 17A]                   pKi        > 7.70
2  N#Cc1cccc(-c2ccc(C3(CNc4nc5cc(F)c(F)cc5[nH]4)CCN(C4CCC4)CC3)cc2)c1                   pKi  7.30 to 7.70

Please indicate pKi recorded for N#Cc1cccc(-c2ccc(C(CCc3nc4cc(Cl)c(F)cc4[nH]3)C3CCN(Cc4ccccc4)CC3)cc2)c1 (centres unmarked) [Compound 75B] 7.30 to 7.70

* * *

Target: MCH receptor (Homo sapiens, UniProt Q99705)
Construct: expressed in transfected cells; host or cells: CHO cells
Assay: MCH Receptor Binding Assay ([125I]-MCH, SPA, membranes from CHO cells expressing the MCH receptor)
Settings: [125I]-MCH displacement, CHO cell membranes; read-out: Class (Ki, MCH receptor binding)
Experimental: MCH Receptor Binding Assay: Membranes from CHO cells expressing the MCH receptor were prepared by lysing cells with 5 mM HEPES for 15 min at 4C. Cell lysates were centrifuged ([…], 15 min) and the pellet was resuspended in 5 mM HEPES. […] Nonspecific binding was determined by including 1 μM MCH in the binding reaction. […] Plates were then analyzed in a TOPCOUNT microplate scintillation counter (Packard). Data was analyzed and Ki values were determined using GraphPad Prism.
Attribute: Ki

The following compounds have reported results that may help.
>>> df
                                   compound  experimental_readout   measurement
0  N#Cc1cccc(-c2ccc(C(OCc3nc4cc(F)c(Cl)cc4[nH]3)C3CCNCC3)cc2)c1 (stereo not shown) [Compound 33]                    Ki   20 to 50 nM
1  N#Cc1cccc(-c2ccc(C3(CNc4nc5cc(F)c(F)cc5[nH]4)CCN(CC4CC4)CC3)cc2)c1 [Compound 8B]                    Ki   20 to 50 nM
2  N#Cc1cccc(-c2ccc(C3(CCc4nc5cc(Cl)c(F)cc5[nH]4)CCN(CC4CC4)CC3)cc2)c1 [Compound 11C]                    Ki      > 100 nM
3  N#Cc1cccc(-c2ccc(C3(COc4nc5cc(Cl)c(Cl)cc5[nH]4)CCN(CC4CC4)CC3)cc2)c1 [Compound 57]                    Ki  50 to 100 nM

Using known records, supply Ki for N#Cc1cccc(-c2ccc(C3(NCc4nc5ccccc5[nH]4)CCN(C4CCCC4)CC3)cc2)c1 [Compound 67B] > 100 nM

Answer with reported Ki of N#Cc1cccc(-c2ccc(C3(CCc4nc5cc(Cl)c(F)cc5[nH]4)CCNCC3)cc2)c1 [Compound 11B] > 100 nM

Answer with reported Ki of N#Cc1cccc(-c2ccc(C(CCc3nc4c(Cl)cc(Cl)cc4[nH]3)C3CCN(Cc4ccccc4)CC3)cc2)c1 (stereo not shown) [Compound 75C] 20 to 50 nM

* * *

biological target: MCH receptor (Homo sapiens); construct: expressed in transfected cells; host or cells: CHO cells; experiment: MCH Receptor Binding Assay ([125I]-MCH, SPA, membranes from CHO cells expressing the MCH receptor); conditions: [125I]-MCH displacement, CHO cell membranes; read-out: Class (Ki, MCH receptor binding)
Consider the following compounds and their measured Ki readings.

Reference set (3 entries):
                                   compound                  test_target      measurement
0  N#Cc1cccc(-c2ccc(C(OCc3nc4cc(F)c(Cl)cc4[nH]3)C3CCN(Cc4ccccc4)CC3)cc2)c1 (stereo not shown) [Compound 34B]  MCH receptor (Homo sapiens)  0.02 to 0.05 µM
1  N#Cc1cccc(-c2ccc(C(OCc3nc4cc(F)c(Cl)cc4[nH]3)C3CCN(C4CCCC4)CC3)cc2)c1 (stereo not shown) [Compound 34C]  MCH receptor (Homo sapiens)  0.02 to 0.05 µM
2  CS(=O)(=O)N1CCC(COc2nc3cc(Cl)c(Cl)cc3[nH]2)(c2ccc(-c3cccc(C#N)c3)cc2)CC1 [Compound 56]  MCH receptor (Homo sapiens)         > 0.1 µM

Look up and report measured Ki for this entry: N#Cc1cccc(-c2ccc(C(OCc3nc4cc(F)c(Cl)cc4[nH]3)C3CCN(CCCCCO)CC3)cc2)c1 (stereo not shown) [Compound 34D] > 0.1 µM

Return reported Ki. Input compound: CCNC(=O)N1CCC(COc2nc3cc(Cl)c(Cl)cc3[nH]2)(c2ccc(-c3cccc(C#N)c3)cc2)CC1 [Compound 58] > 0.1 µM

Recall and state the measured Ki for N#Cc1cccc(-c2ccc(C(CCc3nc4cc(Cl)c(Cl)cc4[nH]3)C3CCN(Cc4ccccc4)CC3)cc2)c1 (stereo not shown) [Compound 75A] . 0.05 to 0.1 µM

Give recorded Ki. CC(C)(C)OC(=O)N1CCC(COc2nc3cc(Cl)c(Cl)cc3[nH]2)(c2ccc(-c3cccc(C#N)c3)cc2)CC1 [Compound 53] > 0.1 µM

Hello, please tell me recorded Ki for this one: N#Cc1cccc(-c2ccc(C(NCc3nc4cc(Cl)c(Cl)cc4[nH]3)C3CCNCC3)cc2)c1 (stereo not shown) [Compound 16A] < 0.02 µM

Identify the reported Ki for the following entry. N#Cc1cccc(-c2ccc(C3(CCc4nc5cc(F)c(F)cc5[nH]4)CCN(CC4CC4)CC3)cc2)c1 [Compound 11A] > 0.1 µM

Given the compound N#Cc1cccc(-c2ccc(C(CNc3nc4cc(F)c(F)cc4[nH]3)C3CCN(Cc4ccccc4)CC3)cc2)c1 (stereo not shown) [Compound 28B] , write its reported Ki. < 0.02 µM

* * *

target: MCH receptor (Homo sapiens, UniProt Q99705); construct: expressed in transfected cells; host or cells: CHO cells; assay: MCH Receptor Binding Assay ([125I]-MCH, SPA, membranes from CHO cells expressing the MCH receptor); conditions: [125I]-MCH displacement, CHO cell membranes; read-out: Class (Ki, MCH receptor binding)
pKi: −log10 of the molar value.
List of pKi values.

Kindly indicate its recorded pKi. Item: N#Cc1cccc(-c2ccc(C(CSc3nc4cc(F)c(Cl)cc4[nH]3)C3CCNCC3)cc2)c1 (stereo not drawn) < 7.00

Return value of pKi for input CC(C)(C)OC(=O)N1CCC(C(NCc2nc3cc(F)c(Cl)cc3[nH]2)c2ccc(-c3cccc(C#N)c3)cc2)CC1 (stereo not drawn) [Compound 15B] , no commentary. 7.30 to 7.70
